- System: KM12 colon
- procedure summary: NCI-60 one-dose screen, 48 h
- test parameters: 10 µM unless noted
About 83,000 compounds went through this panel and 20% of them were active in at least one assay; those are over-represented in the sample as a whole. Active and inactive are the calls of the source. Rule for the calls: active = growth percent below 10; inactive = the rest.
One label from this list, please: yes for active, no for inactive

Field: outcome | Entry: `COc1cc(NC(N)=NCCC(C)(C)c2ccc(C(F)(F)F)cc2)ncc1C#N`
no

One more molecule: `Clc1ccc(-c2nc3ccccc3s2)cc1Cl`
no

And the next one, `OCCCCCCNc1ncnc2cc(Cl)ccc12` ?
no

Also check `CN(C[C@H]1Cc2c(cccc2N2CCN(c3ncccn3)CC2)CN1)[C@H]1CCCc2cccnc21`
no

Can you check `Cc1ccc(Cc2c(C=O)nc(N)[nH]c2=O)c2ccccc12` next?
no

Try `C=C(C)[C@@H]1C[C@@H]2Cc3cc(Cl)ccc3N1O2` next.
no

What about this molecule? `Nc1nc(Nc2cc(Cl)cc(Cl)c2)nn1S(=O)(=O)c1ccc2ccccc2c1`
no

Please give the result for `O=[N+]([O-])c1ccc(/C=C/C2(CCl)OCCO2)cc1` too.
no

Param item: `COc1cc(-c2nn(-c3cccc(NC(=O)Nc4cccc(C(F)(F)F)c4)c3)cc2-c2ccncc2)ccc1Cl`
yes

Again, but for `O=C1c2c(c3c4ccccc4n(CCCCCCBr)c3c3[nH]c4ccccc4c23)C(=O)N1O`
no

* * *

- Tested on: HCT-15 colon
- procedure summary: NCI-60 one-dose screen, 48 h
- test parameters: 10 µM unless noted
Compounds without any hit were thinned out: in the full panel of roughly 83,000, 20% have a hit. Active and inactive are the calls of the source. How the source made its calls: active means growth percent below 10; inactive means the rest.
Pick one: t for active, f for inactive

Called result for `O=S(=O)(NCCNc1nccc(-c2c(-c3ccc(O)cc3)nc3sccn23)n1)c1cccc2ccccc12`
f

And `CC(C)CSc1nc(NN)c(C#N)c(-c2ccccc2)n1` ?
f

Repeat for the following molecule: `CC(C)(C)n1cc(-c2ccnc(NCCCNS(=O)(=O)c3ccc(C(F)(F)F)cc3)c2)c(-c2cccc(O)c2)n1`
t

Same read-out for `COc1cc(Nc2nc(N[C@H]3CCCC[C@@H]3N)nc3cc[nH]c(=O)c23)cc(OC)c1` ?
f

Try this molecule too: `C=C1c2nc3ccccc3n2C=C(c2ccc(Cl)cc2)N1Cc1ccccc1`
f

* * *

- Tested on: SK-MEL-5 melanoma
- procedure summary: NCI-60 one-dose screen, 48 h (100 = growth as untreated, 0 = no growth, -100 = all killed)
- test parameters: 10 µM unless noted
This is part of a sample that, as a whole, favours compounds with a hit. Of some 83,000 tested, about 20% had one in any assay. The source made the active and inactive calls. Rule for the calls: active = growth percent below 10; inactive = the rest.
parameter: growth

Which measured growth value corresponds to `Cn1ncc2c(Sc3ccc(Cl)cc3)ncnc21` ?
90.1% (inactive)

What do you have for `Cc1ccc(NS(=O)(=O)c2cc(C)ccc2C)cc1` ?
30.3% (inactive)

Can you handle `OCc1ncc(-c2ccccc2)s1` next?
105% (inactive)

Follow-up item: `COc1ccc(S(=O)(=O)Nc2cc(/C=C\c3cc(OC)c(OC)c(OC)c3)cc(OC)c2OC)cc1`
-6.88% (active)

Check `N/C(=N\S(=O)(=O)c1ccccc1)Nc1nc2ccccc2s1` too.
90.5% (inactive)

How about `C=C(C)[C@@H]1C[C@@H]2Cc3ccc(Cl)c(C)c3N1O2` ?
89.1% (inactive)

Would you mind doing CCC(C)/C(=C\C#N)NCCCN/C(=C/C#N)C(C)CC (stereo not drawn) as well?
108% (inactive)

Item: `COP(=O)(OC)/C(=N\NS(=O)(=O)c1ccc(C)cc1)c1ccccc1`
97.9% (inactive)

What do you get for CN(C)CC(C(=O)c1ccccc1)c1ccccc1 (stereo not drawn) ?
64.2% (inactive)

Subsequent entry: `COc1ccc(Nc2ncccc2C(=O)NCc2cn(Cc3cccc(Oc4ccccc4)c3)nn2)cc1`
16.3% (inactive)

What do you get for `Clc1cc2c(nn1)Nc1ccccc1S2` ?
95% (inactive)

Request: `COc1cc(-c2nn(-c3cccc(NC(=O)c4ccccc4)c3)cc2-c2ccncc2)ccc1Cl`
-49.4% (active)

Could you do the same for `CC(=O)Nc1nc(N)nc(NC(C)=O)c1N=O` , please?
114% (inactive)

Now this one: `CN(C)CCN1C(=O)c2ccc3c4c(ccc(c24)C1=O)C(=O)N(CCN=C=S)C3=O`
-98.8% (active)

Param item: `COc1ccc(-c2ccc(-c3ccc(-c4ccc(C(=N)N)cc4)s3)s2)cc1OC`
93.8% (inactive)

Follow-up item: `C=C(C)[C@@H]1CC[C@]2(C(=O)O)CC[C@]3(C)[C@H](CC[C@@H]4[C@@]5(C)C[C@@H](CC#Cc6ccc(C(F)(F)F)cc6)[C@H](O)C(C)(C)[C@@H]5CC[C@]43C)[C@@H]12`
-32.9% (active)

For `Cc1ccc(S(=O)(=O)n2cc(C(=O)C(=O)Nc3ccncc3)c3ccccc32)cc1` then?
11.2% (inactive)

Next up: `COc1ccc(-c2nc(N3CCCC3=O)sc2Br)cc1OC`
89.8% (inactive)
